As shown below, each of these molecules has a reported chemical recovery into PDMS value.
Assay: chemical recovery into PDMS from spiked human plasma; higher = better extraction
Conditions: pooled human plasma; extraction method: PES with PDMS; equilibration time (d): 1
Numbers only here, please. The scale is %.

{"columns": ["Molecule", "Observed Result"],
 "data": [
  ["Cc1c(C(C)C)c(=O)n(-c2ccccc2)n1C [Propyphenazone]", 17.3],
  ["CCOP(=S)(OCC)Oc1cc(C)nc(C(C)C)n1 [Diazinon]", 31.2],
  ["CCCCCCCCCCCC(=O)N(CCO)CCO [Lauryl diethanolamide]", 16.8]
]}

# input # get_value(readout='chemical recovery into PDMS', item= OC(Cc1ccccc1Cl)(Cn1cncn1)C1(Cl)CC1 (centres undefined) [Prothioconazole-desthio] )
# output 36.2

###

Measured chemical recovery of individual entries
Test: chemical recovery from spiked human plasma; higher = better extraction
Conditions: pooled human plasma; extraction method: SPE only (HLB 96-well), PES comparison experiment
Give the value, in units of %, as a plain number.

Worked set:
{"columns": ["Molecule", "chemical recovery (%)"],
 "data": [
  ["CC(=O)OCC(=O)[C@@]12OC3(CCCC3)O[C@@H]1C[C@H]1[C@@H]3CCC4=CC(=O)C=C[C@]4(C)[C@@]3(F)[C@@H](O)C[C@@]12C [Amcinonide]", 39.5],
  ["CC(=O)[C@@]1(O)CC[C@H]2[C@@H]3C[C@H](C)C4=CC(=O)C=C[C@]4(C)[C@@]3(F)[C@@H](O)C[C@@]21C [Fluorometholone]", 50.4],
  ["CCCCCCCCCCN(C)C [N,N-Dimethyldecylamine]", 39.4]
]}

Please turn your attention to the following entry.
# input chemical recovery lookup needed for COCC(=O)N(c1c(C)cccc1C)C(C)C(=O)OC (centres undefined) [Metalaxyl] , thanks.
# output 50.3

###

Assay: chemical recovery from spiked human plasma; higher = better extraction
Details: pooled human plasma; extraction method: SPE only (HLB 96-well), PES comparison experiment
Entries annotated with measured chemical recovery
Give the value, in units of %, as a plain number.

{"columns": ["Molecule", "Value Unit", "chemical recovery"],
 "data": [
  ["O=C(O)COc1ccc(Cl)cc1Cl", "%", 56.3],
  ["CCCN(CCOc1c(Cl)cc(Cl)cc1Cl)C(=O)NC=O", "%", 43.4]
]}

With those in mind, consider the next molecule.
# input For NC(=O)N=C(N)N , what is its reported chemical recovery?
# output 1.06

###

Test: chemical recovery from spiked human plasma; higher = better extraction
Details: pooled human plasma; extraction method: SPE only (HLB 96-well)
Measure: chemical recovery (%)
Expressed in %, but write only the number.

A selection of reference data follows.
{"columns": ["Compound", "Measure", "Observed Result"],
 "data": [
  ["c1ccc2c(c1)[nH]c1ccncc12", "chemical recovery", 34.1],
  ["O=P(Oc1ccccc1)(Oc1ccccc1)Oc1ccccc1 [Triphenylphosphate]", "chemical recovery", 57.9],
  ["CCCCCCCCCCCCCCOS(=O)(=O)O [Tetradecylsulfate]", "chemical recovery", 28.4],
  ["CC(=O)N1CCN(c2ccc(OC[C@H]3CO[C@](Cn4ccnc4)(c4ccc(Cl)cc4Cl)O3)cc2)CC1 (racemic)", "chemical recovery", 42.6],
  ["CN(C)S(=O)(=O)c1ccc(N)cc1 [4-Amino-NN-dimethylbenzenesulfonamide]", "chemical recovery", 45.4]
]}

# input Name the recorded chemical recovery for O=C1CC2(CCCCC2)CN1 .
# output 49.4
